target: HLA-A*02:07; assay: IEDB peptide-MHC binding, purified MHC/competitive/radioactivity; filed as Kd, often an IC50 or EC50 that approximates it; bounds were set here for any values at or beyond the usual limits of such assays; conditions: source organism: HIV-1 M:B_MN
pKd: −log10 of the molar value.
reported_metric: pKd

The following sequences have reported results that may help.
Request: Find the measured pKd of WVDLRSLFL and report it.
Result: ≤ 4.57

Request: State its pKd for this sequence: ILKEPVHGV
Result: ≤ 4.52

Request: Provide pKd value for the following sequence: LLWKGEGAVV
Result: 5.38

Next:
Request: Answer with the recorded pKd for the sequence listed here: YTAFTIPSI
Result: ≤ 4.52

* * *

biological target: HLA-A*02:07; experiment: IEDB peptide-MHC binding, purified MHC/competitive/radioactivity; filed as Kd, often an IC50 or EC50 that approximates it; bounds were set here for any values at or beyond the usual limits of such assays; settings: source organism: Human papillomavirus 16
reported_metric: Kd (nM)
Kindly answer with a numeric value in nM, unit omitted.

Request: Give the value of Kd reported for the following: KLPQLCTEL
Result: 2660

* * *

biological target: HLA-A*02:07; test: IEDB peptide-MHC binding, purified MHC/competitive/radioactivity; filed as Kd, often an IC50 or EC50 that approximates it; bounds were set here for any values at or beyond the usual limits of such assays; conditions: source organism: Mycobacterium tuberculosis
reported_metric: Kd (nM)
Supply the numeric figure in nM, leaving out any unit text.

Request: Given RLPLVLPAV , respond with its Kd.
Result: 8.9

Turning now to a further record.
Request: Identify measured Kd associated with YLDLALMSV
Result: 44

* * *

target: HLA-A*02:07; assay: IEDB peptide-MHC binding, purified MHC/competitive/radioactivity; filed as Kd, often an IC50 or EC50 that approximates it; bounds were set here for any values at or beyond the usual limits of such assays; conditions: source organism: Homo sapiens
Measured log10(Kd) accompanies every entry in the list below.
// units: µM (pre-log); metric: Kd; scale: log10

The examples below pair each entry with its known result.
Request: For the sequence CILESLFRA , report log10(Kd).
Result: 0.81

Request: Tell me measured log10(Kd) for ALDVYNGLL please.
Result: 0.78

Request: State its log10(Kd): AAPLILSRI
Result: 0.82

Request: Consider the sequence YLQLVFGIEV . State its measured log10(Kd).
Result: 0.02

Request: For the sequence GMPEGDLVYV , give its measured log10(Kd) value.
Result: 0.15

Request: Identify log10(Kd) associated with the sequence RMPEAAPPV
Result: -0.26

***
Request: Look up log10(Kd) of SLDLASLIL and report it.
Result: 0.19

* * *

molecular target: HLA-A*02:01; test: IEDB peptide-MHC binding, purified MHC/competitive/radioactivity; filed as Kd, often an IC50 or EC50 that approximates it; bounds were set here for any values at or beyond the usual limits of such assays; conditions: source organism: Hepatitis B virus
Reported Kd by item:
The reply should contain only the number, in µM.

Request: Let me know recorded Kd for LLPFVQWFV , thanks.
Result: 0.0086

Now look at this one.
Request: Return Kd for the following sequence: SLDSWWTSV
Result: 0.05

* * *

// values below are reported Kd
biological target: HLA-A*02:01; assay: IEDB peptide-MHC binding, purified MHC/competitive/radioactivity; filed as Kd, often an IC50 or EC50 that approximates it; bounds were set here for any values at or beyond the usual limits of such assays; settings: source organism: Homo sapiens

Request: Return reported Kd. Input sequence: QIPSYKKLI
Result: ≥ 30000 nM

Request: Give recorded Kd. LTDAVKVMDL
Result: ≥ 30000 nM

Request: Fill in reported Kd for this entry: TLPSWATEDT
Result: ≥ 30000 nM

Request: Look up and state reported Kd for NLDRSNDKV
Result: ≥ 30000 nM

Request: State, in one line, measured Kd of ALDVYNGLL
Result: 96 nM

New cases:
Request: Read the entry CILESLFRA and write its reported Kd.
Result: 68 nM

Request: Supply measured Kd of SLDLASLIL in your reply.
Result: 1610 nM

Request: Recall and state the measured Kd for AAPLILSRI .
Result: ≥ 30000 nM

* * *

target: HLA-A*02:07; test: IEDB peptide-MHC binding, purified MHC/competitive/radioactivity; filed as Kd, often an IC50 or EC50 that approximates it; bounds were set here for any values at or beyond the usual limits of such assays; conditions: source organism: Homo sapiens
pKd: −log10 of the molar value.
reported_metric: pKd

Request: Give the reported pKd for this sequence. LLFFWLDRSV
Result: ≤ 4.52

Request: State its pKd for this sequence: NLDRSNDKV
Result: ≤ 4.52

Request: # return recorded pKd for entry TLPSWATEDT
Result: ≤ 4.52

Request: Tell me measured pKd for LTDAVKVMDL please.
Result: ≤ 4.52

Request: Give recorded pKd. ALAETSYVKV
Result: ≤ 4.63

Request: Please supply the value of reported pKd for the item QIPSYKKLI
Result: ≤ 4.52
